# CC50 at 72 h per record follows
- PROCEDURE SUMMARY: Cytotoxicity MTT assay
- Type: cell-based, Human
- EXPERIMENTAL CONTEXT: human, HelaM cells, read-out: HELAM (222.125) CC50

# COMPOUND, RELATION OPERATOR, CC50 at 72 h, µg/mL
rows = [
    ("O=C1Nc2ncc(/C=C/C(=O)N3CCC=C(c4ccccc4)CC3)cc2CN2CCSCC12 (stereo not drawn)", "=", 4.88),
    ("CN1CC(=O)Nc2ncc(/C=C/C(=O)N3CC=C(c4cccs4)CCC3)cc2C1", ">", 10.3),
    ("O=C(Nc1ccc(/C=C/C(=O)N2CCC=C(c3ccccc3)CC2)cn1)c1cccnc1", "=", 0.43),
    ("O=C(Nc1ccc(/C=C/C(=O)N2CCC=C(c3ccccc3)CC2)cn1)c1ccoc1", ">", 10.4),
    ("O=C(Nc1ccc(/C=C/C(=O)N2CCC=C(c3ccccc3)CC2)cn1)c1c[nH]cn1", ">", 10.4),
    ("O=C(Nc1ccc(/C=C/C(=O)N2CCC=C(c3ccccc3)CC2)cn1)c1ccccn1", "=", 3.83),
    ("O=C1Nc2ncc(/C=C/C(=O)N3CC=C(c4ccccc4)CCC3)cc2CN2CCOCC12 (stereo not drawn)", "=", 22),
    ("COc1ccc(F)cc1C1=CCCN(C(=O)/C=C/c2cnc3c(c2)CNCC(=O)N3)CC1", ">", 11),
    ("COc1ccc(CN2CC(=O)Nc3ncc(/C=C/C(=O)N4CCC=C(c5ccccc5)CC4)cc3C2)cc1", ">", 12.8),
    ("O=C1Nc2ncc(/C=C/C(=O)N3CCC=C(c4ccccc4)CC3)cc2CO1", ">", 9.43),
    ("O=C1Nc2ncc(/C=C/C(=O)N3CCC=C(c4ccccc4)CC3)cc2CN2CCOCC12 (stereo not drawn)", ">", 11.2),
    ("O=C(Nc1ccc(/C=C/C(=O)N2CCC=C(c3ccccc3)CC2)cn1)c1cnccn1", ">", 10.7),
    ("O=C1Nc2ncc(/C=C/C(=O)N3CC=C(c4ccccc4)CCC3)cc2CN2CCSCC12 (stereo not drawn)", "=", 5.35),
    ("O=C1CN(c2ccccc2)Cc2cc(/C=C/C(=O)N3CCC=C(c4ccccc4)CC3)cnc2N1", "=", 11.7),
    ("CC(=O)Nc1ccc(/C=C/C(=O)N2CC=C(c3ccccc3)CCC2)cn1", ">", 9.08),
]
